# experimental_details: Solubility study of crystal form I
# Assay type: physicochemical
# assay_context: pH 1.2 hydrochloric acid solution, pH 1.2, simulated gastric fluid, thermodynamic from solid
measurement_type: solubility

molecule="COc1cnc(-c2c(OC)ncnc2C2CC2)nc1NCC12CCC(c3nc(C(F)(F)F)cn3C)(CC1)CC2 [crystal form I]" experimental_result="8.45 to 16.9 mg/mL"
